Assay: Tolerance and toxicity on ingestion
Assay type: in vivo, animals
Settings: in vivo, po; daily basis; read-out: safely administered daily dose
recorded-endpoint: NOAEL

> print(dat)
                              molecule  recorded.endpoint               obs.value
1  CS(C)(=O)=O [methylsulfonylmethane]              NOAEL  1000 to 2000 mg/kg/day

---

Test: Pin worm (Enterobius) infection in laboratory mice (Examples 19 and 28(c))
Format: in vivo
Conditions: mouse, blood, po; one animal examined; 2% by wt. in feed and drinking water; read-out: blood level of methylsulfonylmethane
recorded-endpoint: concentration at 408 h

> print(dat)
           mol       recorded.endpoint      obs.value
1  CS(C)(=O)=O  concentration at 408 h  > 30000 ng/mL

Where do these numbers come from? They come from patent US4863748A.
